Measured kcat, listed per entry.
- Substrate: O=c1ccn([C@@H]2O[C@H](COP(=O)(O)OP(=O)(O)O[C@H]3O[C@H](CO)[C@H](O)[C@H](O)[C@H]3O)[C@@H](O)[C@H]2O)c(=O)[nH]1
- METHOD SUMMARY: galactosyltransferase assay, HPLC-UV
- Type: biochemical, Homo sapiens
- CONDITION NOTES: apparent, fixed 5 mM 4-MUX, 10 mM MnCl2, 100 mM sodium cacodylate pH 7.0, 37 °C
- Source text: galactosyltransferase assay, HPLC-UV on hβ4GalT7 (GST-β4GalT7)
MEASURED QUANTITY: kcat

| PROTEIN | MEASURED QUANTITY | TEST VALUE |
| --- | --- | --- |
| hβ4GalT7 (GST-β4GalT7) (Homo sapiens; R270K) (protein, truncated soluble form lacking the first 60 N-terminal amino acids (transmembrane domain and part of stem), GST fusion (tag kept), pET-41a(+), E. coli BL21(DE3), glutathione-Sepharose purified) VRGQGQETSGPPRACPPEPPPEHWEEDASWGPHRLAVLVPFRERFEELLVFVPHMRRFLSRKKIRHHIYVLNQVDHFRFNRAALINVGFLESSNSTDYIAMHDVDLLPLNEELDYGFPEAGPFHVASPELHPLYHYKTYVGGILLLSKQHYRLCNGMSNRFWGWGREDDEFYRRIKGAGLQLFRPSGITTGYKTFRHLHDPAWRKRDQKKIAAQKQEQFKVDREGGLNTVKYHVASRTALSVGGAPCTVLNIMLDCDKTATPWCTFS | kcat | 0.812 ± 0.025 s⁻¹ |
| hβ4GalT7 (GST-β4GalT7) (Homo sapiens; R226A) (protein, truncated soluble form lacking the first 60 N-terminal amino acids (transmembrane domain and part of stem), GST fusion (tag kept), pET-41a(+), E. coli BL21(DE3), glutathione-Sepharose purified) VRGQGQETSGPPRACPPEPPPEHWEEDASWGPHRLAVLVPFRERFEELLVFVPHMRRFLSRKKIRHHIYVLNQVDHFRFNRAALINVGFLESSNSTDYIAMHDVDLLPLNEELDYGFPEAGPFHVASPELHPLYHYKTYVGGILLLSKQHYRLCNGMSNRFWGWGAEDDEFYRRIKGAGLQLFRPSGITTGYKTFRHLHDPAWRKRDQKRIAAQKQEQFKVDREGGLNTVKYHVASRTALSVGGAPCTVLNIMLDCDKTATPWCTFS | kcat | 0.893 ± 0.0333 s⁻¹ |
